Can you tell me koff for the items I'm about to list?
Target: T1, Human C5 (human, UniProt P01031 19-1676)
T1 construct: The natural protein has a beta and an alpha chain; also called complement factor 5; complement component 5
Assay: SPR, mAb captured by anti-hFc, 37C
// note: answer is a bare numeric in s⁻¹

Output koff of H4H12166P9 (antibody, human IgG4, V domains shown, human IgG4 Fc with S108P hinge mutation) VH: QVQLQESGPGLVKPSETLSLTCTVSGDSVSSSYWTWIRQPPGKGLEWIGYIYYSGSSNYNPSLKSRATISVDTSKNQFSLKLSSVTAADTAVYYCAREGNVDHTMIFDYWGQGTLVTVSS VL: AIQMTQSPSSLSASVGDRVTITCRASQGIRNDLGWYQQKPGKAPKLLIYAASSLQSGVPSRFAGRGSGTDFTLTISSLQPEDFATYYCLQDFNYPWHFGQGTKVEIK
0.000639

Output koff of H4H12166P10 (antibody, human IgG4, V domains shown, human IgG4 Fc with S108P hinge mutation) VH: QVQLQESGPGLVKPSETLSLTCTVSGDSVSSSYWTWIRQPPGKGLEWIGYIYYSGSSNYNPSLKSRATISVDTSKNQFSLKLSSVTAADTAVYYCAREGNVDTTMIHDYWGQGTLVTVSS VL: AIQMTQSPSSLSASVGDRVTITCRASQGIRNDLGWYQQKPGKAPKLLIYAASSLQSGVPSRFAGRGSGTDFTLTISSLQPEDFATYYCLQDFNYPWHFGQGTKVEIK
0.00314

Output koff of H4H12171P (antibody, human IgG4, V domains shown) VH: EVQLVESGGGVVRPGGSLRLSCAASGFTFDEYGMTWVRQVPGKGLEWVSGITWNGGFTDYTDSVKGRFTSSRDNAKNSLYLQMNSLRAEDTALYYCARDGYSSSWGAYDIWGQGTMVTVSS VL: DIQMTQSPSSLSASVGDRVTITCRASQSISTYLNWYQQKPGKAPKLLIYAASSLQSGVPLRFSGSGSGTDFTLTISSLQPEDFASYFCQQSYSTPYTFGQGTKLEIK
0.000762
